// values below are reported melting point

See these solved cases before continuing.
Compound	Reported value
Fc1ccc2c(c1)C(OCC1CC1)(C(F)F)c1cc(Cl)cnc1N2 (stereo unspecified)	169 to 170 °C
Cc1c(Cl)ccc2c1[nH]c1c(CO)cccc12	187 °C
COC1=C(OC)C(=O)c2c(NC(C)=O)cccc2C1=O	162 to 163 °C
CCc1c(C=CC(=O)O)ccc2c1OCO2	204 °C

Reported melting point of CC1(CN2CCC(Oc3ccc(C(F)(F)F)cc3)CC2)Cn2cc([N+](=O)[O-])nc2O1 (stereo unspecified) : 113 to 114 °C

Please fill in: melting point reported for Cc1ccc(-c2cnc(-c3ccc(C(F)(F)F)cc3)s2)s1 = 150 to 152 °C

Record O=C(O)c1ccc(Cc2n[nH]c3c2c(=O)n(-c2ccccc2)c2ncccc32)cc1 , field melting point: > 320 °C

Lookup result for COc1ccc2c(c1)SC(CCBr)C(=O)N2 (stereo unspecified) ; measured melting point: 142 to 143 °C
